These data points were gathered from patent US6620828B2.

# Target system: LCK tyrosine kinase (Homo sapiens, UniProt P06239, C224D/P223M)
# Construct: starting from amino acid residue 223 to the end of the protein at residue 509; made in house; host or cells: insect cells
# Sequence (P06239 223-509 P223M/C224D): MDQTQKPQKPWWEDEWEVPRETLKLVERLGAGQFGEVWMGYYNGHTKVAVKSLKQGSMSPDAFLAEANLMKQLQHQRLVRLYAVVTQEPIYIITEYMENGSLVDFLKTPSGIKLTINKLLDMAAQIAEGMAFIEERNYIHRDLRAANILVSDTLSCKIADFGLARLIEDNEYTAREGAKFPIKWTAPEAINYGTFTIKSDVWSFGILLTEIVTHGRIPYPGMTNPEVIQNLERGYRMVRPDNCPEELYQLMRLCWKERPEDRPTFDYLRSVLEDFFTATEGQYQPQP
# Experiment: LCK spectrophotometric assay
# Type: biochemical
# Conditions: Table 3, read-out: LCK (% inh @ 1 uM)
Measured property: inhibition at 1 µM (%)

>>> df
                         chemical_structure                             target_system  units_symbol  readout_value
0  COc1cc(Nc2nc(N)c(-c3nc(-c4cc(NC(=O)c5cccc(Cl)c5)c(F)cc4F)no3)s2)cc(OC)c1OC  LCK tyrosine kinase (Homo sapiens, UniProt P06239, C224D/P223M)             %             15

a: CCn1nc(C)cc1C(=O)Nc1ccc(C)c(-c2noc(-c3sc(Nc4cccc(CN5CCCC5)c4)nc3N)n2)c1
b: COc1cccc(C(=O)Nc2cc(-c3noc(-c4sc(Nc5cc(OC)c(OC)c(OC)c5)nc4N)n3)c(F)cc2F)c1
IN: Which value of inhibition at 1 µM is numerically greater: that of a or that of b ? Choose, then provide that item's label.
OUT: a
(a: 91%, b: 1%)

a: COc1cccc(C(=O)Nc2ccc(F)c(-c3noc(-c4sc(Nc5cc(OC)c(OC)c(OC)c5)nc4N)n3)c2)c1
b: Cc1cccc(C(=O)Nc2cccc(-c3noc(-c4sc(NC(=O)NCCCN5CCOCC5)nc4N)n3)c2)c1
IN: Hi there! Just curious which has the higher inhibition at 1 µM between a and b . # answer = label of selected item
OUT: a
(a: 35%, b: 21%)
